experimentSummary: Serum levels in mice after oral administration
Format: in vivo
testSettings: mouse, 5 mg/kg, 15', read-out: Serum level
Field: concentration at 0.25 h. Provide a value for each of the molecules that follow.

Short answer for CNn1cc(C(=O)O)c(=O)c2cc(F)c(N3CCN(C)CC3)cc21 [II, reference compound] : concentration at 0.25 h was 700 ng/mL

Short answer for CNn1cc(C(=O)O)c(=O)c2cc(F)c(N3CCN(C)CC3)c(F)c21 : concentration at 0.25 h was 900 ng/mL

====

experimentSummary: Serum levels in mice following subcutaneous administration
Format: in vivo
testSettings: mouse, sc, 5 mg/kg, 2 hours, read-out: Serum level
endpointName: concentration at 2 h (ng/mL)
# unit: ng/mL | format: bare number

Short answer for CNn1cc(C(=O)O)c(=O)c2cc(F)c(N3CCN(C)CC3)cc21 [II, reference compound] : concentration at 2 h was 100

Short answer for CNn1cc(C(=O)O)c(=O)c2cc(F)c(N3CCN(C)CC3)c(F)c21 : concentration at 2 h was 300
